Every entry's value here was drawn from patent US20140221340A1.

molecules and their reported inhibition at 0.1 µM
# Target System: human CCR10 (Homo sapiens, UniProt P46092)
# Construct: expressed in transfected cells; host or cells: KJMGER8 cell (cell line derived from Namalwa cell); expression induced with 10 nmol/L β-estradiol
# Sequence (P46092 1-362): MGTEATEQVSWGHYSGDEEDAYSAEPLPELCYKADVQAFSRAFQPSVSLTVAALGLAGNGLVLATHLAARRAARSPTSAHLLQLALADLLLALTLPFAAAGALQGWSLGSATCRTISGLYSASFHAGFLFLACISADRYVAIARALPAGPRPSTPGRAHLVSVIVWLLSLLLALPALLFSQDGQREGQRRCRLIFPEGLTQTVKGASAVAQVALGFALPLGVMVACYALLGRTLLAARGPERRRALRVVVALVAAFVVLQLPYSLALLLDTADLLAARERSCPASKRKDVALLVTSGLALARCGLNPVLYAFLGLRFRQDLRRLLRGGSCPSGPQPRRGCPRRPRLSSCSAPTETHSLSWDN
# Experiment Description: Calcium assay of human CCR10 (inhibition of CTACK-induced increase in intracellular calcium ion concentration in hCCR10G16 cells)
# Format: cell-based
# Stated Conditions: test compound 100 nmol/L; human recombinant CTACK; hCCR10G16 cells (KJMGER8/Namalwa-derived, Gα16 co-expressed); FLIPR or FDSS; read-out: Inhibitory rate (%) for an increase in calcium ion concentration
# Method: A CCR10-inducible expression plasmid was produced according to a known method (“Analytical Biochemistry”, 2006, vol. 400, page 163). A DNA encoding human CCR10 was obtained by PCR. […] Using a primer specific to the sequence of the plasmid (synthetic DNA having the sequences shown by SEQ ID NOs: 3 and 4), the sequence of human CCR10 DNA region was determined. […]
Readout Label: inhibition at 0.1 µM (%)

Chemical Structure	Readout Label	Unit	Censoring Sign	Numeric Readout
O=CNS(=O)(=O)c1cnn2c(Nc3cc(Cl)ccc3Cl)c(C(=O)N3CCC(c4ccc(F)cc4)CC3)cnc12	inhibition at 0.1 µM	%	>	100
Cc1cc(Nc2c(C(=O)N3CCC(c4ccc(F)cc4)CC3)cnc3c(S(=O)(=O)NC(=O)C4CC4)cnn23)c(Cl)cc1F	inhibition at 0.1 µM	%	>	100
COCC(=O)NS(=O)(=O)c1cnn2c(Nc3ccc(F)cc3C)c(C(=O)N3CCC(c4ccccc4)CC3)cnc12	inhibition at 0.1 µM	%	=	94.2
CC(=O)NS(=O)(=O)c1cnn2c(Nc3cc(Cl)ccc3Cl)c(C(=O)N3CCC(c4ccc(F)cc4)CC3)cnc12	inhibition at 0.1 µM	%	>	100
O=C(c1cnc2c(S(=O)(=O)Nc3nncs3)cnn2c1Nc1cc(Cl)ccc1Cl)N1CCC(c2ccc(F)cc2)CC1	inhibition at 0.1 µM	%	>	100
CCNC(=O)NS(=O)(=O)c1cnn2c(Nc3cc(C)ccc3Cl)c(C(=O)N3CCC4(CC3)OCc3ccccc34)cnc12	inhibition at 0.1 µM	%	=	95.2
CCC(=O)NS(=O)(=O)c1cnn2c(Nc3cc(Cl)ccc3Cl)c(C(=O)N3CCC(c4ccc(F)cc4)CC3)cnc12	inhibition at 0.1 µM	%	>	100
Cc1ccc(Cl)c(Nc2c(C(=O)N3CCC4(CC3)OCc3ccccc34)cnc3c(S(=O)(=O)NC(=O)C4CCC4)cnn23)c1	inhibition at 0.1 µM	%	>	100
CNCC(=O)NS(=O)(=O)c1cnn2c(Nc3ccc(F)cc3C)c(C(=O)N3CCC(c4ccccc4)CC3)cnc12	inhibition at 0.1 µM	%	=	58.8
CC1(C(=O)NS(=O)(=O)c2cnn3c(Nc4cc(Cl)ccc4Cl)c(C(=O)N4CCC(c5ccc(F)cc5)CC4)cnc23)COC1	inhibition at 0.1 µM	%	>	100
Cc1cc(F)ccc1Nc1c(C(=O)N2CCC(c3ccc(F)cc3)CC2)cnc2c(S(=O)(=O)NCC(F)(F)F)cnn12	inhibition at 0.1 µM	%	>	100
COCCNS(=O)(=O)c1cnn2c(Nc3ccccc3Cl)c(C(=O)N3CCC(c4ccc(F)cc4)CC3)cnc12	inhibition at 0.1 µM	%	=	28.9
Cc1ccc(Cl)c(Nc2c(C(=O)N3CCC4(CC3)OCc3ccccc34)cnc3c(S(=O)(=O)NC(=O)NCC(F)(F)F)cnn23)c1	inhibition at 0.1 µM	%	=	75.3
CCNC(=O)NS(=O)(=O)c1cnn2c(Nc3ccc(Cl)cc3Cl)c(C(=O)N3CCC(c4ccc(F)cc4)CC3)cnc12	inhibition at 0.1 µM	%	=	90.7

---

inhibition at 0.1 µM by entry:
# Target System: human CCR10 (Homo sapiens, UniProt P46092)
# Construct: expressed in transfected cells; host or cells: KJMGER8 cell (cell line derived from Namalwa cell); expression induced with 10 nmol/L β-estradiol
# Experiment Description: Calcium assay of human CCR10 (inhibition of CTACK-induced increase in intracellular calcium ion concentration in hCCR10G16 cells)
# Assay type: cell-based
# Stated Conditions: test compound 100 nmol/L; human recombinant CTACK; hCCR10G16 cells (KJMGER8/Namalwa-derived, Gα16 co-expressed); FLIPR or FDSS; read-out: Inhibitory rate (%) for an increase in calcium ion concentration

Compound	Target System	inhibition at 0.1 µM
CCNC(=O)NS(=O)(=O)c1cnn2c(Nc3cc(F)ccc3Cl)c(C(=O)N3CCC(c4ccc(F)cc4)CC3)cnc12	human CCR10 (Homo sapiens, UniProt P46092)	> 100%
Cc1ccc(Cl)c(Nc2c(C(=O)N3CCC(c4ccc(F)cc4)CC3)cnc3c(S(=O)(=O)NC(=O)NC4CC4(F)F)cnn23)c1 (stereo not drawn)	human CCR10 (Homo sapiens, UniProt P46092)	> 100%
O=C(c1cnc2c(S(=O)(=O)Nc3ncccn3)cnn2c1Nc1cc(Cl)ccc1Cl)N1CCC(c2ccc(F)cc2)CC1	human CCR10 (Homo sapiens, UniProt P46092)	> 100%
CCC(=O)NS(=O)(=O)c1cnn2c(Nc3ccc(C)cc3Cl)c(C(=O)N3CCC(c4ccc(F)cc4)CC3)cnc12	human CCR10 (Homo sapiens, UniProt P46092)	98.3%
CCNC(=O)NS(=O)(=O)c1cnn2c(Nc3ccc(C)cc3F)c(C(=O)N3CCC4(CC3)OCc3ccccc34)cnc12	human CCR10 (Homo sapiens, UniProt P46092)	> 100%
O=C(NS(=O)(=O)c1cnn2c(Nc3ccccc3Cl)c(C(=O)N3CCC(c4ccccc4)CC3)cnc12)C1CC1	human CCR10 (Homo sapiens, UniProt P46092)	98.9%
CCC(=O)NS(=O)(=O)c1cnn2c(Nc3cc(C)ccc3Cl)c(C(=O)N3CC4(C3)CN(c3ccc(F)cc3)C4)cnc12	human CCR10 (Homo sapiens, UniProt P46092)	90.2%
CCONS(=O)(=O)c1cnn2c(Nc3cc(Cl)ccc3Cl)c(C(=O)N3CCC(c4ccc(F)cc4)CC3)cnc12	human CCR10 (Homo sapiens, UniProt P46092)	> 100%
CCNC(=O)NS(=O)(=O)c1cnn2c(NCc3ccccc3)c(C(=O)N3CCC(c4ccccc4)CC3)cnc12	human CCR10 (Homo sapiens, UniProt P46092)	95.1%
CCN(CC)S(=O)(=O)c1cnn2c(Nc3ccc(F)cc3C)c(C(=O)N3CCC(c4ccccc4)CC3)cnc12	human CCR10 (Homo sapiens, UniProt P46092)	> 100%
CCC(=O)NS(=O)(=O)c1cnn2c(Nc3ccc(C)cc3F)c(C(=O)N3CCC4(CC3)OCc3ccccc34)cnc12	human CCR10 (Homo sapiens, UniProt P46092)	> 100%
CCC(=O)NS(=O)(=O)c1cnn2c(Nc3cc(C)ccc3F)c(C(=O)N3CCC(c4ccc(F)cc4)CC3)cnc12	human CCR10 (Homo sapiens, UniProt P46092)	> 100%
CCNC(=O)NS(=O)(=O)c1cnn2c(Nc3cc(C)c(F)cc3Cl)c(C(=O)N3CCC(c4ccc(F)cc4)CC3)cnc12	human CCR10 (Homo sapiens, UniProt P46092)	> 100%
O=C(NS(=O)(=O)c1cnn2c(Nc3ccccc3Cl)c(C(=O)N3CCC(c4ccc(F)cc4)CC3)cnc12)C1CC1	human CCR10 (Homo sapiens, UniProt P46092)	80.6%
Cc1cc(F)ccc1Nc1c(C(=O)N2CCC(c3ccccc3)CC2)cnc2c(S(=O)(=O)NC(=O)CO)cnn12	human CCR10 (Homo sapiens, UniProt P46092)	> 100%

---

# Target System: human CCR10 (Homo sapiens, UniProt P46092)
# Construct: expressed in transfected cells; host or cells: KJMGER8 cell (cell line derived from Namalwa cell); expression induced with 10 nmol/L β-estradiol
# Experiment Description: Calcium assay of human CCR10 (inhibition of CTACK-induced increase in intracellular calcium ion concentration in hCCR10G16 cells)
# Format: cell-based
# Stated Conditions: test compound 100 nmol/L; human recombinant CTACK; hCCR10G16 cells (KJMGER8/Namalwa-derived, Gα16 co-expressed); FLIPR or FDSS; read-out: Inhibitory rate (%) for an increase in calcium ion concentration
# Method: A CCR10-inducible expression plasmid was produced according to a known method (“Analytical Biochemistry”, 2006, vol. 400, page 163). A DNA encoding human CCR10 was obtained by PCR. […] Using a primer specific to the sequence of the plasmid (synthetic DNA having the sequences shown by SEQ ID NOs: 3 and 4), the sequence of human CCR10 DNA region was determined. […]

Chemical Structure	inhibition at 0.1 µM
Cc1cc(F)ccc1Nc1c(C(=O)N2CCC(c3ccccc3)CC2)cnc2c(S(=O)(=O)NC(=O)Nc3ccccc3)cnn12	63.7%
O=C(NS(=O)(=O)c1cnn2c(Nc3cc(Cl)ccc3Cl)c(C(=O)N3CCC4(CC3)OCc3ccccc34)cnc12)C1CC1	> 100%
O=C(NC1CC1)NS(=O)(=O)c1cnn2c(Nc3ccc(F)cc3Cl)c(C(=O)N3CCC(c4ccc(F)cc4)CC3)cnc12	> 100%
CCC(=O)NS(=O)(=O)c1cnn2c(Nc3cc(C)ccc3F)c(C(=O)N3CCC4(CC3)OCc3ccccc34)cnc12	> 100%
CC(=O)NS(=O)(=O)c1cnn2c(Nc3cc(C)ccc3Cl)c(C(=O)N3CCC4(CC3)OCc3ccccc34)cnc12	> 100%
